This collection of values is drawn from ChEMBL document CHEMBL4007384.

# measured on: Glycogen synthase kinase-3 beta (Homo sapiens)
# Sequence (P49841 whole entry): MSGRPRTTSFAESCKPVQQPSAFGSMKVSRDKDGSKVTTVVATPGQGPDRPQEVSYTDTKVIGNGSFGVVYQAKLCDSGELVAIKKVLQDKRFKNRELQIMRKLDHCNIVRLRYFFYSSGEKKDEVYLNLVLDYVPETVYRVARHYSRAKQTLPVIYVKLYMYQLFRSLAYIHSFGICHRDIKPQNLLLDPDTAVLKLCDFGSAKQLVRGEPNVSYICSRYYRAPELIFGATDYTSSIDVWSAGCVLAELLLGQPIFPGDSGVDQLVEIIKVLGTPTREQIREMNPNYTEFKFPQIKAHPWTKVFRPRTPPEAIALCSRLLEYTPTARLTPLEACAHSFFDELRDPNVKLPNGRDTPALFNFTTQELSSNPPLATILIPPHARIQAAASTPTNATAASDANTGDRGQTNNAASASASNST
observable: IC50

Q. # lookup: IC50 of FC(F)(F)CNc1nc(Nc2ccc(N3CCOCC3)c(Cl)c2)nc2ccoc12
A. > 10 µM

====

# measured on: Tyrosine-protein kinase receptor TYRO3 (Homo sapiens, UniProt Q06418)
# Sequence (Q06418 whole entry): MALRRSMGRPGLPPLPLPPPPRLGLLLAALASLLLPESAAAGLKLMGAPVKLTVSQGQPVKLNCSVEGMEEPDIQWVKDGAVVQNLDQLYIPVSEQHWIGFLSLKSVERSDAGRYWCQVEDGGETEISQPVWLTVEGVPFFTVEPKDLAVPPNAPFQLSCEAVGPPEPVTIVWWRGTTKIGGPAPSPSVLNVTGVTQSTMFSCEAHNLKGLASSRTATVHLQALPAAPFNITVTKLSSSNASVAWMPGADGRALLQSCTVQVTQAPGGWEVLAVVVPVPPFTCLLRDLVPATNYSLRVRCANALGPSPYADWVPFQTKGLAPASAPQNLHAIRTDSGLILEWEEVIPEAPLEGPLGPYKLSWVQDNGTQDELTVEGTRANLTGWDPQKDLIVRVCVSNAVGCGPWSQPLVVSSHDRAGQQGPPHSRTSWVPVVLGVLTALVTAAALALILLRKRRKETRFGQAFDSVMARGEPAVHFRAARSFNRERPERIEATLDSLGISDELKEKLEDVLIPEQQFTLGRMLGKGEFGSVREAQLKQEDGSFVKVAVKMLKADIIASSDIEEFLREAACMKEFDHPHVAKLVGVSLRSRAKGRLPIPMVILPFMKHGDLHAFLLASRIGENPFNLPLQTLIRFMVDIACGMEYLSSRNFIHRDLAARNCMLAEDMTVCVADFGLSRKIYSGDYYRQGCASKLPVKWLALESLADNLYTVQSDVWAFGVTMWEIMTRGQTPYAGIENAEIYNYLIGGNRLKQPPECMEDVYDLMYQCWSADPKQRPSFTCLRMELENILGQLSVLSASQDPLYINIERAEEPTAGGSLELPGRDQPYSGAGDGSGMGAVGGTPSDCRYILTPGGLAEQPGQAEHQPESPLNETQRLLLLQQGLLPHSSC
observable: IC50 (µM)
All answers are understood in µM, so give the number only.

Q. # lookup: IC50 of FC(F)(F)CNc1nc(Nc2ccc3cn[nH]c3c2)nc2ccoc12
A. 3.21
